test-target: T1, cynomolgus IL-17A homodimer (cynomolgus, UniProt A0A2K5TTB0 20-155)
T1 sequence: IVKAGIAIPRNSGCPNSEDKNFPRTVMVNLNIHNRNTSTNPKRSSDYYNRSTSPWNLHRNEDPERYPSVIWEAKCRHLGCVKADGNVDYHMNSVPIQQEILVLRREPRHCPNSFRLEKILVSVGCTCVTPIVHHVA
assay-notes: cell-based or functional assay
test-readout: IC50, IL-6 secretion by HFFF2 human fibroblasts, cytokine at 25 ng/ml (nM)
Answer with a number only, understood to be in nM.

Q) # IC50, IL-6 secretion by HFFF2 human fibroblasts, cytokine at 25 ng/ml lookup, item 39F12A antibody (antibody, V domains shown) VH: QVQLVQSGAEVKKPGSSVKVSCKASGGTLSSYAFSWVRQAPGQGLEWMGGIIPFFGTTNYAQKFQGRVIITADESTNTAYMELSGLRSEDTAVYYCARDRDYYGLGSPFYYYGMDVWGQGTTVTVSS VL: EIVLTQSPDFQSVTPKEKVTITCRASQSIGSSLHWYQQKPDQSPKLLIKYASQSFSGVPSRFSGSGSGTDFTLTINSLEAEDAATYYCHQSSSLPWTFGQGTKVEIK
A) 20

Q) # IC50, IL-6 secretion by HFFF2 human fibroblasts, cytokine at 25 ng/ml lookup, item 30D12BF antibody (antibody, V domains shown) VH: QVQLVQSGAEVKKPGASVKVSCKASGYTFTSYDINWVRQATGQGLEWMGWLNPDSGVIRYAQKFQGRVTMTRDTSISTAYMELSSLRSEDTAVYYCAREWFGELPSYYFYSGMDVWGQGTTVTVSS VL: EIVLTQSPATLSLSPGERATLSCRASQSVSSYLAWYQQKPGQAPRLLIYDASNRATGIPARFSGSGSGTDFTLTISSLEPEDFAVYYCQQRSNWPPTFGPGTKVDIK
A) 5.7

Q) # IC50, IL-6 secretion by HFFF2 human fibroblasts, cytokine at 25 ng/ml lookup, item 30D12 antibody (antibody, IgG1, V domains shown, Fully human monoclonal antibody; also called 30D12 IgG1) VH: QVQLVQSGAEVKKPGASVKVSCKASGYTFTSYDINWVRQATGQGLEWMGWMNPDSGVIRYAQKFQGRVTMTRNTSISTAYMELNSLRSEDTAVYYCAREWFGELPSYYFYSGMDVWGQGTTVTVSS VL: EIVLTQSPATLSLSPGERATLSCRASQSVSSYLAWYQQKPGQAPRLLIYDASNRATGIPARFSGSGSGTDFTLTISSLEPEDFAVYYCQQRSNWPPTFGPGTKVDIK
A) 6.6

Q) # IC50, IL-6 secretion by HFFF2 human fibroblasts, cytokine at 25 ng/ml lookup, item 39F12 antibody (antibody, IgG4, V domains shown, also called Mab06a; 39F12 IgG4) VH: QVQLVQSGAEVKKPGSSVKVSCKASGGTLSSYAFSWVRQAPGQGLEWMGGIIPFFGTTNYAQKFQGRVIITADESTNTAYMELSGLRSEDTAVYYCARDRDYYGLGSPFYYYGMDVWGQGTTVTVSS VL: EIVLTQSPDFQSVTPKEKVTITCRASQSIGSSLHWYQQKPDQSPKLLIKYASQSFSGVPSRFSGSGSGTDFTLTINSLEAEDAAAYYCHQSSSLPWTFGQGTKVEIK
A) 15
